target: T1, human EGFR on cells (A431, NCI-H292, NCI-H322, NCI-H441) (human, UniProt P00533 25-1210); test: A431 cell binding, anti-His-Alexa488 fluorescence
T1 construct: Endogenous EGFR of human tumor cell lines; also called HER-1; Erb-B1
Recorded Metric: pEC50
Expect pEC50 as a plain number equal to -log10 of the molar concentration.

- P54AR4-48 (designed binder, not shown: small tags and cut ends) LPAPKNLVVSEVTEDSLRLSWDDPRGFYESFLIQYQESEKVGEAINLTVPGSERSYDLTGLKPGTEYTVSIYGVHNVYKDTNMRGLPLSAEFTT: 7.92
- P54AR4-74 (designed binder, not shown: small tags and cut ends) LPAPKNLVVSEVTEDSLRLSWGYNGDHFDSFLIQYQESEKVGEAINLTVPGSERSYDLTGLKPGTEYTVSIYGVHNVYKDTNMRGLPLSAEFTT: 7.11
- P54AR4-17 (designed binder, not shown: small tags and cut ends) LPAPKNLVVSEVTEDSLRLSWTYDRDGYDSFLIQYQESEKVGEAINLTVPGSERSYDLTGLKPGTEYTVSIYGVHNVYKDTNMRGLPLSAEFTT: 7.80
- P54AR4-81 (designed binder, not shown: small tags and cut ends) LPAPKNLVVSEVTEDSLRLSWDYDLGVYFDSFLIQYQESEKVGEAINLTVPGSERSYDLTGLKPGTEYTVSIYGVHNVYKDTNMRGLPLSAEFTT: 7.08

Next item in the queue.
Which pEC50 is listed for P54AR4-73 (designed binder, not shown: small tags and cut ends, also called P54AR4-37) LPAPKNLVVSEVTEDSLRLSWTWPYADLDSFLIQYQESEKVGEAINLTVPGSERSYDLTGLKPGTEYTVSIYGVHNVYKDTNMRGLPLSAEFTT ? 8.03
